- System: HT29 colon
- run_description: NCI-60 one-dose screen, 48 h
- experimental_setup: 10 µM unless noted
The panel holds about 83,000 compounds, 20% with a hit somewhere; the sample as a whole holds those more often. The source made the active and inactive calls. How the source made its calls: active means growth percent below 10; inactive means the rest.
Outcome codes: 1 (yes) = active, 0 (no) = inactive

>>> discrete_label("CN(C)S(=O)(=O)n1cnc([C@@H]2[C@@H]3C(=O)OC[C@@H]3C[C@]23N=CN(Cc2ccccc2)C3=O)c1")
"0 (no)"
>>> discrete_label("Fc1ccc(Nc2nc3nonc3nc2Nc2ccc(F)cc2)cc1")
"1 (yes)"
>>> discrete_label("COC1=CC(c2ccc[nH]2)=N/C1=C\\c1[nH]c(C)c(C(=O)OCCn2cc(CCC[C@@H]3Cc4cc(O)ccc4C4CC[C@]5(C)[C@@H](O)CC[C@H]5C43)nn2)c1C (some centres undefined)")
"0 (no)"
>>> discrete_label("O=C(/C=C/C12c3ccccc3C(c3ccccc31)C1C(=O)N(c3ccc(Cl)cc3)C(=O)C12)c1ccccn1 (centres undefined)")
"1 (yes)"

====

- Test system: T-47D breast
- run_description: NCI-60 one-dose screen, 48 h
- experimental_setup: 10 µM unless noted
About 83,000 compounds went through this panel and 20% of them were active in at least one assay; those are over-represented in the sample as a whole. Activity calls are given as the source filed them. The calls were made as follows: active = growth percent below 10; inactive = the rest.
Outcome codes: active, inactive

>>> discrete_label("Cc1c(C(=O)O)nnn1-c1nccs1")
"inactive"
>>> discrete_label("N=c1ccn2c(n1)OC1C(O)C(CO)OC12 (stereo unspecified)")
"inactive"
>>> discrete_label("N#Cc1c(N)nc2c(nnn2-c2cccc(Br)c2)c1N")
"inactive"
>>> discrete_label("CSc1ncc(C)c(Nc2ccc(Cl)cc2)n1")
"inactive"
>>> discrete_label("CCOC(=O)Cc1csc2nc(-c3ccccc3)nn12")
"inactive"
>>> discrete_label("CCN(CCO)CC(=O)c1cc(Cl)cc(Cl)c1Cl")
"inactive"
>>> discrete_label("CC(=O)Nc1nccs1")
"inactive"
>>> discrete_label("COc1ccc(/C=C2\\C=C(c3ccccc3)N(CCc3ccccc3)C2=O)cc1OC")
"active"
>>> discrete_label("COc1ccc(OC)c(C(=O)Nc2cccc(-c3cc(=O)c4ccccc4o3)c2)c1")
"inactive"
>>> discrete_label("CN(C)CN1CCN(c2ccc3nc(-c4ccc5nc(-c6ccc(C(F)(F)F)cc6)[nH]c5c4)[nH]c3c2)CC1")
"inactive"
>>> discrete_label("COc1cc(C(=O)Nc2cc(O)c(CC=C(C)C)c(O)c2)cc2c1O[C@]1(C)CC[C@@H](O)C(C)(C)[C@H]1C2")
"active"

====

- Test system: MDA-MB-435 melanoma
- run_description: NCI-60 one-dose screen, 48 h (100 = growth as untreated, 0 = no growth, -100 = all killed)
- experimental_setup: 10 µM unless noted
This is part of a sample that, as a whole, favours compounds with a hit. Of some 83,000 tested, about 20% had one in any assay.
So basically: is growth under 90%? Then satisfied. Not under? Then not satisfied.

>>> discrete_label("Nc1c(C(=O)c2ccccc2)nnc2ncnn12")
"not satisfied"
>>> discrete_label("C[C@]12CCC(=O)C[C@H]1CC[C@@H]1[C@@H]2CC[C@@]2(C)[C@H]1CC[C@]2(O)C(=O)CO")
"not satisfied"
>>> discrete_label("COC(=O)/C(=C\\c1ccc(OC)cc1)C(=O)N1c2ccccc2Sc2ccccc21")
"satisfied"
>>> discrete_label("CCCCC1COc2cccc3c(SCC(=O)N(C)c4cccc(Cl)c4)cc[n+]1c23 (stereo unspecified)")
"not satisfied"
>>> discrete_label("CN1CCN(c2ccc3nc(/N=C/c4ccc5sc(-c6ccc([N+](=O)[O-])cc6)nc5c4)sc3c2)CC1")
"not satisfied"
>>> discrete_label("Cc1cc(Cl)nc(N(CCCNc2ccnc3cc(Cl)ccc23)Cc2ccccn2)n1")
"satisfied"
>>> discrete_label("CN(C)CN1CCN(c2ccc3nc(-c4ccc5nc(-c6ccc(C(F)(F)F)cc6)[nH]c5c4)[nH]c3c2)CC1")
"satisfied"
>>> discrete_label("Cc1nc(Nc2ccccn2)sc1C(=O)/C=C/c1ccc(Br)cc1")
"satisfied"
>>> discrete_label("COc1ccc(/C=C(\\C#N)n2nnc3ccccc32)cc1")
"satisfied"
>>> discrete_label("CCCCN(Cc1ccc(C(=O)NO)cc1)C(=O)Nc1ccc(OCCCCCCCCCn2cc(CCCCC(=O)N[C@H](C(=O)N3C[C@H](O)C[C@H]3C(=O)NCc3ccc(-c4scnc4C)cc3)C(C)(C)C)nn2)cc1")
"satisfied"
>>> discrete_label("CCNCCNc1cc(-c2cccc(C(F)(F)F)c2)c(C#N)c2nc3ccccc3n12")
"satisfied"
>>> discrete_label("C=CC(=O)Nc1cccc(C)c1Nc1cc(-c2cccnc2Cc2c(C)c(OC)cc(OC)c2C)ncn1")
"satisfied"
>>> discrete_label("CN(C)c1ccc2cc(-c3ccccc3F)c(N)nc2c1")
"satisfied"
>>> discrete_label("CC(C)(O)c1cccc(F)c1")
"not satisfied"
>>> discrete_label("Cc1nc(Nc2ccc(NC(=S)Nc3ccccc3)cc2)nc2nc(Nc3ccc(S(=O)(=O)O)cc3)[nH]c(=O)c12")
"not satisfied"
>>> discrete_label("O=C(Nc1ccccn1)[C@H](O)[C@@H](O)C(=O)N1CCOCC1")
"not satisfied"
>>> discrete_label("Cc1nc(C)c(-c2nn3c(-c4cccc(F)c4)nnc3s2)s1")
"not satisfied"
>>> discrete_label("CC(=[N-])N1CCC[C@@H](Nc2c3ccccc3nc3ccccc23)C1.[Cl][Pt].[NH-]CCC[NH-]")
"satisfied"
>>> discrete_label("C[C@@H]1C(=O)N(C[C@H](Cc2ccccc2)N(Cc2ccccc2)Cc2ccccc2)[C@]1(Cc1ccccc1)C(=O)OC(C)(C)C")
"satisfied"
>>> discrete_label("CCNCCNc1cc(-c2ccc(F)cc2)c(C#N)c2nc3ccccc3n12")
"satisfied"
>>> discrete_label("O=[N+]([O-])c1ccc(-c2cc3c(Nc4ccc(Sc5nc6ccccc6s5)c(Cl)c4)ncnc3s2)cc1")
"satisfied"
>>> discrete_label("COc1ccccc1C(=O)NC(=S)Nc1ccc(-c2nc3ccccc3[nH]2)cc1")
"satisfied"
>>> discrete_label("Nc1ccc2c(S(=O)(=O)O)ccc(S(=O)(=O)O)c2c1")
"not satisfied"
>>> discrete_label("C=C1C(=O)O[C@H]2[C@H]1CC/C(Cn1cc(CNCCc3c[nH]c4ccccc34)nn1)=C\\CC[C@@]1(C)O[C@@H]21")
"not satisfied"
>>> discrete_label("C[C@@H]1CC[C@@H]2[C@@H]1[C@H](OC(=O)/C=C/c1ccccc1)[C@]1(CCCOCCOCCOCCOC(=O)CCCC[C@@H]3SC[C@@H]4NC(=O)N[C@@H]43)C[C@@H](OC(=O)CO)[C@@]2(C)O1")
"not satisfied"
>>> discrete_label("CCN(CC)CCOc1ccc(/C(=C(\\C)c2ccc(F)c(OC)c2)c2ccc(Cl)cc2)cc1")
"satisfied"
>>> discrete_label("C=C1c2c(C)nn(-c3ccc(O)cc3)c2N(C)C23C[C@@H]1C1(C)c4c(C)nn(-c5ccc(O)cc5)c4N(C)C(C)(C[C@H]12)C3 (stereo partly specified)")
"satisfied"
>>> discrete_label("C[C@H]1[C@H]2C3=CC[C@@H]4[C@@]5(C)C/C(=C/c6ccncc6)C(=O)C(C)(C)[C@@H]5CC[C@@]4(C)[C@]3(C)CC[C@@]2(C(=O)N2CCN(C)CC2)CC[C@@H]1C")
"satisfied"
>>> discrete_label("COc1ccc(C2CC(c3ccc4ccccc4c3)=NN2c2nc(O)c(C3=c4cc(Cl)ccc4=NC3=O)s2)cc1 (stereo unspecified)")
"satisfied"
>>> discrete_label("CSc1ncc(C)c(Nc2ccc(Cl)cc2)n1")
"not satisfied"
>>> discrete_label("COc1cc2c(cc1OC)-c1ccc3cc4c(cc3c1N(CCCN(C)C)C2)OCO4")
"satisfied"
>>> discrete_label("O=C(NCCOCCOCCNc1cccc2c1C(=O)N(C1CCCNC1=O)C2=O)c1cc2c(o1)C(=O)c1ccccc1C2=O (stereo unspecified)")
"satisfied"
>>> discrete_label("CCOC(=O)c1ccc(NC(=O)CCCN(CC)CC)cc1")
"not satisfied"
>>> discrete_label("Cc1c(C(=O)O[C@H]2[C@@H]3[C@H](C)CC[C@H]3[C@]3(C)O[C@@]2(C2CCCCC2)C[C@H]3OC(=O)CO)ccc2ccccc12")
"satisfied"

====

- System: MDA-MB-435 melanoma
- run_description: NCI-60 one-dose screen, 48 h (100 = growth as untreated, 0 = no growth, -100 = all killed)
- experimental_setup: 10 µM unless noted
This is part of a sample that, as a whole, favours compounds with a hit. Of some 83,000 tested, about 20% had one in any assay.
measurement_kind: growth (%)

>>> reading("O=S(=O)(NCCNc1cc(-c2c(-c3cccc(O)c3)nc3sccn23)ccn1)c1ccc(Cl)cc1")
24.8
>>> reading("NC(N)=N/N=C/c1ccc(Br)cc1")
-33.1
>>> reading("O=C(/C=C/C12c3ccccc3C(c3ccccc31)C1C(=O)NC(=O)C12)c1ccccc1 (stereo not given)")
13.8
>>> reading("Cc1[nH]c(-c2nc3ccccc3[nH]2)c(C)c1C(=O)N1CCc2sccc2C1")
94.9
>>> reading("COc1cc2c(cc1OC)-c1ccc3cc4c(cc3c1N(CCCn1ccnc1)C2)OCO4")
61.1
>>> reading("O=C1/C(=C/c2ccc([N+](=O)[O-])cc2)COc2ccc(O)c(O)c21")
0.103
>>> reading("Clc1ccc2[nH]c3c(NCCCN4CCOCC4)ncnc3c2c1")
92.8
>>> reading("CN1CCC(=C2c3ccccc3C=Cc3ccccc32)CC1")
80.2
>>> reading("COc1ccc(-c2cc(-c3cc(OC)ccc3OC)[nH]c(=O)c2C#N)cc1")
1.49
>>> reading("CCCCN1CCN(c2ccc3nc(-c4ccc5nc(-c6cc(OC)c(OC)c(OC)c6)[nH]c5c4)[nH]c3c2)CC1")
53.5
